Where a name gives a salt, the structure may show the parent alone.
assay.endpoint: melting point

# molecule, experimental.value
measured = [
    ("CC(C)C[C@H](N)C(=O)NS(=O)(=O)c1ccc(Br)c2ccncc12 (as salt: trifluoroacetate)", "137 to 139 °C"),
    ("Cc1cc(-c2cccc(S(=O)(=O)NC(=O)[C@@H](N)CC(C)C)c2)ncn1", "246 °C"),
]

Consider the molecule shown here: CC(C)C[C@H](N)C(=O)NS(=O)(=O)c1cccc2c1OCCC2 What is its recorded melting point?
165 °C (dec.)

Consider next the molecule Cc1cc(-c2cccc(S(=O)(=O)NC(=O)[C@@H](N)CC3CC3)c2)nc(N)n1 in the same way.
> 192 °C (dec.)

Consider next the molecule CC(C)C[C@H](N)C(=O)NS(=O)(=O)c1cccc2c(N(C)C)cccc12 (as salt: hydrochloride) in the same way.
178 to 180 °C

Data origin, for the record: patent US11072581B2
